assay-method-text: Solubility in water at pH 5.2 (saturation, HPLC)
Format: physicochemical
reported-conditions: pH 5.2, thermodynamic from solid; pH5.2; saturation; HPLC; based on water-free sibutramine
Where a name gives a salt, the structure may show the parent alone.
I'd be grateful if you could share measured solubility for these entries.
Give bare numbers, in mg/mL.

molecule | uom | solubility
CC(C)CC(N(C)C)C1(c2ccc(Cl)cc2)CCC1 (racemic) [sibutramine methanesulfonate hemihydrate] | mg/mL | 2500

Next molecule, please.
Looking up CC(C)CC(N(C)C)C1(c2ccc(Cl)cc2)CCC1 (centres unmarked) [sibutramine hydrochloride monohydrate, reference compound] , I see its solubility listed as 2.8
